Provide the reported IC50 of each item.
Target Or Test System: T1, GLP-1R S193A (Homo sapiens)
T1 chain: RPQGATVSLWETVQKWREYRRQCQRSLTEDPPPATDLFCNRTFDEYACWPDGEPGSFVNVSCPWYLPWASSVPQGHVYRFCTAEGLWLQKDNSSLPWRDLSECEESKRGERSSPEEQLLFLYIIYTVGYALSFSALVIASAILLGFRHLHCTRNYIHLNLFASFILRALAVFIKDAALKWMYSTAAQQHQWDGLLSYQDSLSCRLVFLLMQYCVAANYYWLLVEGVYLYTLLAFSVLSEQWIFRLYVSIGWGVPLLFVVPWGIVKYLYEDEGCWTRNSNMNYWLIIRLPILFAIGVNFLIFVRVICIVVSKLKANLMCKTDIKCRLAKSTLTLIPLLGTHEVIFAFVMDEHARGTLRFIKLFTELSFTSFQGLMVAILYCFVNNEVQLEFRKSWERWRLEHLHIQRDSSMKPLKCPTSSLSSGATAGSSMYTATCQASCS
No end group written: not given here.
Please give a number only; it is taken to be in nM.

Query: Determine from records and report IC50 for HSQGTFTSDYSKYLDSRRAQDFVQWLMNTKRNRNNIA [oxyntomodulin]
Response: 14.8

Query: Using known records, supply IC50 for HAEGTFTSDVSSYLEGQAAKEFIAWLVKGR (not fully specified (C-terminus)) [glucagon-like peptide-1]
Response: 5.01

Reference for the values: paper PMC8748714
